Biological target: 5-LOX (Homo sapiens, UniProt P09917)
Sequence (P09917 whole entry): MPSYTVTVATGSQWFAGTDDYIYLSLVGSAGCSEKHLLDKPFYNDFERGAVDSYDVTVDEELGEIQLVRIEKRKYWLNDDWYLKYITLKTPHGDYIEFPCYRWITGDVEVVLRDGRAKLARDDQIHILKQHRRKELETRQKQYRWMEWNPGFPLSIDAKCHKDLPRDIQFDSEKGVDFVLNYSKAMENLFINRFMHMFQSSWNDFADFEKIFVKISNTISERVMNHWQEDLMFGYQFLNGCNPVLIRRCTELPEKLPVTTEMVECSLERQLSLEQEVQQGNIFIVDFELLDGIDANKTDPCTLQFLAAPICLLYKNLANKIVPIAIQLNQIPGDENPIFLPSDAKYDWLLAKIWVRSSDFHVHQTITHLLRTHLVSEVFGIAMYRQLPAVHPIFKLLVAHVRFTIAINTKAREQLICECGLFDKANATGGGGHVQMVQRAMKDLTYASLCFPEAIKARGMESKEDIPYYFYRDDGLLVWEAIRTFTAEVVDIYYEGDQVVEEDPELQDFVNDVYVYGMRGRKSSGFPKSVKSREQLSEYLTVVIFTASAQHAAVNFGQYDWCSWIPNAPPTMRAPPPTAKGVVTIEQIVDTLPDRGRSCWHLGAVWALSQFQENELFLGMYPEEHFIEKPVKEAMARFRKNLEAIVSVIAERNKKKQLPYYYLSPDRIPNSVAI
Experiment: 5-LOX fluorescent assay (in vitro lipoxygenase inhibition)
Format: biochemical
Details: recombinant 5-LOX cell lysate, 20 μM AA, DHR123 fluorescence; several values in a cell = repeat determinations; read-out: IC50 (μM) values for in vitro lipoxygenase inhibition, 5-LOX
Measured IC50, listed per entry.
# unit: µM | format: bare number

Reference set, count: 3
Data point: FC(F)(F)C(Nc1ccc(NCCCN2CCOCC2)c(C2CCCCC2)c1)c1ccccc1 (centres unmarked) ; IC50 = 0.04

Query `CCOC(=O)c1ccc(Nc2ccccc2OCCn2cncn2)cc1` yields IC50 of 50.3

// field: IC50; key: `Cc1cc(Nc2ccc(Cl)c(F)c2)ccc1NCC1(CN2CCOCC2)COC1` ; value = 0.05

***
Entry under test: `Fc1ccc(Nc2ccc(NCC3(Cn4cncn4)COC3)c(OC(F)(F)F)c2)cc1` . Its IC50 was 0.15

Entry `c1ccc(Nc2ccc(-c3cccs3)c(NCCn3cncn3)c2)cc1` — recorded IC50 = 0.28

----------
IC50 overview
Biological target: 12-LOX (Homo sapiens, UniProt P18054)
Sequence (P18054 1-663): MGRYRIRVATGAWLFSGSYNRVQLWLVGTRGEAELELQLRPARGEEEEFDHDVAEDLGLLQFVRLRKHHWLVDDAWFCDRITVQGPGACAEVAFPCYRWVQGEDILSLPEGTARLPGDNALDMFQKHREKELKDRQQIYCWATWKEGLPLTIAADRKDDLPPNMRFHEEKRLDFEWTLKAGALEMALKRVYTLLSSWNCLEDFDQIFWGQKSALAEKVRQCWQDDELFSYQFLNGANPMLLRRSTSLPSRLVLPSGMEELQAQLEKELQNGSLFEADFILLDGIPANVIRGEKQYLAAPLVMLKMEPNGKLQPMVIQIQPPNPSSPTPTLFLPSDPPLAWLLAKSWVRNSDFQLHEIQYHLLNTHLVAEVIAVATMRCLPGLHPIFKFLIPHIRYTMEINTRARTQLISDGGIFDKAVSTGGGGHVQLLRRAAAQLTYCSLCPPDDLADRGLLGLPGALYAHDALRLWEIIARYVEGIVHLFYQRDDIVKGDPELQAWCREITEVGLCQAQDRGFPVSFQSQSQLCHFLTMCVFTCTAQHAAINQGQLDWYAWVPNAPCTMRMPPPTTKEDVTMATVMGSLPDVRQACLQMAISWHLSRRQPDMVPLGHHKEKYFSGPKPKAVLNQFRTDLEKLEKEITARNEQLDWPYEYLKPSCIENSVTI
Assay: 12-LOX fluorescent assay (in vitro lipoxygenase inhibition)
Assay type: biochemical
Conditions: 100 nM recombinant 12-LOX, 20 μM AA, DHR123 fluorescence; several values in a cell = repeat determinations; read-out: IC50 (μM) values for in vitro lipoxygenase inhibition, 12-LOX
Lab book: enter the figure in µM, no units written.

Would you please look over these solved cases?
// sample COc1ccc(CNc2cccc(Nc3ccccc3)c2OCCN(C)C)cc1 [SS20308-0052-01] , its IC50 was 0.62

Recorded IC50 (molecule `Fc1ccc(Nc2ccc(NCC3(CN4CCOCC4)COC3)c(C(F)(F)F)c2)cc1` ): 0.04

Record OCCc1ccccc1-c1ccc(Nc2ccccc2)cc1NCCn1cncn1 [SS20308-0149-01] , field IC50: 0.3

The recorded IC50 for COc1ccccc1-c1ccc(Nc2ccccc2)cc1NCCn1cncn1 [SS20308-0144-01] is 0.18

Quick note, IC50 for FC(F)(F)c1cc(NC2(c3ccccc3)COC2)ccc1NCCN1CCOCC1 [SS20308-0317-01] landed at 0.32

Per the records, this molecule ( CN(C)CCNc1cc(Nc2ccccc2)ccc1-c1ccccc1 [SS20308-0130-01] ) has IC50 equal to 0.25

// sample FC(F)(F)c1cc(Nc2ccc(Cl)cc2)ccc1NCC1(Cn2cncn2)COC1 [SS20308-0322-01] , its IC50 was 0.05

Quick note, IC50 for Fc1ccc(CNc2cc(-c3ccccc3)c(NCCn3cncn3)cc2F)cc1 [SS20308-0229-01] landed at 0.02

Then there is this molecule:
The reported IC50 of the molecule c1ccc(CNc2cnc(NCCn3cncn3)c(-c3ccccc3)c2)cc1 [SS20308-0212-01] was 1.61
